- Tested on: Human immunodeficiency virus 1
- test-method-notes: Antiviral activity against HIV1 replication in human H9 cells
- test-parameters: Homo sapiens, H9
Listed molecules paired with reported EC50

smiles-code	system-tested	display-unit	censoring-qualifier	EC50
C[C@H]1[C@H](C)CC[C@]2(C(=O)O)CC[C@]3(C)C(=CC[C@@H]4[C@@]5(C)CC[C@H](OC(=O)CCC(=O)O)C(C)(C)[C@@H]5CC[C@]43C)[C@H]12	Human immunodeficiency virus 1	nM	=	15300
C=C(C)[C@@H]1CC[C@]2(C(=O)O)CC[C@]3(C)[C@H](CC[C@@H]4[C@@]5(C)CC[C@H](OC(=O)CC(C)(C)C(=O)O)C(C)(C)[C@@H]5CC[C@]43C)[C@@H]12	Human immunodeficiency virus 1	nM	<	0.35
C[C@@H]1CC[C@]2(C(=O)O)CC[C@]3(C)C(=CC[C@@H]4[C@@]5(C)CC[C@H](O)C(C)(C)[C@@H]5CC[C@]43C)[C@@H]2[C@]1(C)O	Human immunodeficiency virus 1	nM	=	3000
C[C@H]1[C@H](C)CC[C@]2(C(=O)O)CC[C@]3(C)C(=CC[C@@H]4[C@@]5(C)CC[C@H](OC(=O)CC(C)(C)C(=O)O)C(C)(C)[C@@H]5CC[C@]43C)[C@H]12	Human immunodeficiency virus 1	nM	=	2100
C[C@H]1[C@H](C)CC[C@]2(C(=O)O)CC[C@]3(C)C(=CC[C@@H]4[C@@]5(C)CC[C@H](OC(=O)CCCC(=O)O)C(C)(C)[C@@H]5CC[C@]43C)[C@H]12	Human immunodeficiency virus 1	nM	=	6400
C[C@H]1[C@H](C)CC[C@]2(C(=O)O)CC[C@]3(C)C(=CC[C@@H]4[C@@]5(C)CC[C@H](OC(=O)COCC(=O)O)C(C)(C)[C@@H]5CC[C@]43C)[C@H]12	Human immunodeficiency virus 1	nM	=	310
